Study Target: c-kit kinase (Homo sapiens, UniProt P10721)
Construct: The c-kit (or kinase domain thereof) is an active kinase in AlphaScreen; poly-Histidine tag (in-house protein only) (cleaved yes); host or cells: E. coli BL21(DE3)RIL, co-expressed with PTP1B
Sequence (P10721 26-976): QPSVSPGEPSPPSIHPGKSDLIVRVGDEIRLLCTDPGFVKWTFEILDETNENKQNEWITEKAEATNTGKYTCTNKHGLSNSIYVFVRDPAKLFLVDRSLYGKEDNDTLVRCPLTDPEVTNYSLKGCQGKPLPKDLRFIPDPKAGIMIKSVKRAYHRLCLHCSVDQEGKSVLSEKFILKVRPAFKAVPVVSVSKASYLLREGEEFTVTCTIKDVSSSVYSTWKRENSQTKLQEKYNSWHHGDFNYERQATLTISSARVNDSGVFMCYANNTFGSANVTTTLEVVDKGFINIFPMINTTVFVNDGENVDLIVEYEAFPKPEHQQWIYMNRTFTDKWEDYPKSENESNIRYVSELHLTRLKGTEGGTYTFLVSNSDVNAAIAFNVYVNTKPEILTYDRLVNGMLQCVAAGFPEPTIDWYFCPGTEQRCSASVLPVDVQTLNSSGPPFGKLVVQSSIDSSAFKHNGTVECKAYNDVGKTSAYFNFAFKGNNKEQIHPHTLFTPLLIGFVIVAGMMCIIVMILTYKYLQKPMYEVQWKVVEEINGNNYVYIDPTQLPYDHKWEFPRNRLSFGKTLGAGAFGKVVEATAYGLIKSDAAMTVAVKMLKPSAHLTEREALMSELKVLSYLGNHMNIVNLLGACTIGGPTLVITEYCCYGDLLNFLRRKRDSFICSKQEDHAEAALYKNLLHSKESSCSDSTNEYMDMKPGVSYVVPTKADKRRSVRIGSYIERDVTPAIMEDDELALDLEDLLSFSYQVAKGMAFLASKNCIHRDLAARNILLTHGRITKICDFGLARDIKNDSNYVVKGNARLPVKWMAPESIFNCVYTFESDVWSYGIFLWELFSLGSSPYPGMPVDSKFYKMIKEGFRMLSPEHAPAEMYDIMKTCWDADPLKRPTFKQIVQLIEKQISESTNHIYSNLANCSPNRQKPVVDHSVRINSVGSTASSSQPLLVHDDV
Assay Info: c-Kit biochemical assay, AlphaScreen, 10 μM ATP
Condition Set: c-kit biochemical inhibitory activity; read-out: Biochemical activity (IC50 μM) Kit
Reported IC50 is given for each of the following compounds.

| Compound Structure | IC50 |
| --- | --- |
| O=C(Nc1ccc(F)c(F)c1)N1CCN(c2ncnc3[nH]ccc23)CC1 | 10 to 200 µM |
| CS(=O)(=O)Nc1cccc(-c2cc3c(N4CCN(C(=O)NCc5ccc(F)cc5)CC4)ncnc3[nH]2)c1 | 1 to 10 µM |
| C[C@@H]1CN(c2ncnc3[nH]c(-c4ccncc4)cc23)CCN1C(=O)Nc1ccc(Cl)cc1 | 0.0001 to 1 µM |
| Cc1cc2c(-c3ccc(NS(=O)(=O)c4ccc(F)cc4)c(F)c3)ncnc2[nH]1 | 1 to 10 µM |
| Cc1cc2c(-c3ccc(NS(=O)(=O)c4ccc5c(c4)OCO5)cc3)ncnc2[nH]1 | 10 to 200 µM |
| O=S(=O)(NC1CCN(c2ncnc3[nH]ccc23)CC1)c1ccccc1 | 10 to 200 µM |
| COc1cc(-c2cc3c(N4CCN(C(=O)N[C@@H](C)c5ccc(F)cc5)[C@H](C)C4)ncnc3[nH]2)ccn1 | 10 to 200 µM |
| Cc1ccc([C@H](C)NC(=O)N2CCN(c3ncnc4[nH]c(-c5ccc(F)cc5)cc34)CC2(C)C)cc1 | 0.0001 to 1 µM |
| C[C@H](NC(=O)N1CC=C(c2ncnc3cc(-c4ccc(F)cc4)sc23)CC1)c1cccc(Cl)c1 | 10 to 200 µM |
| Cc1nc(C)c(-c2cc3c(N4CCC(NS(=O)(=O)c5ccc(OC(F)(F)F)cc5)CC4)ncnc3[nH]2)s1 | 1 to 10 µM |
| CN(C)c1ccc(NC(=O)N2CCN(c3ncnc4[nH]c(C#CC5CC5)cc34)CC2)cc1 | 1 to 10 µM |
| O=C(NCc1ccc(Cl)cn1)N1CCN(c2ncnc3[nH]c(-c4cccnc4)cc23)CC1 | 0.0001 to 1 µM |
| CCCc1ccc(S(=O)(=O)Nc2ccc(-c3ncnc4[nH]c(C)cc34)cc2)cc1 | 1 to 10 µM |
| Cc1cc2c(-c3ccc(NS(=O)(=O)c4cc(F)cc(F)c4)cc3F)ncnc2[nH]1 | 10 to 200 µM |
| C[C@H](NC(=O)N1CCN(c2ncnc3[nH]c(-c4ccc(F)cc4)cc23)CC1(C)C)c1ccc(F)cc1 | 1 to 10 µM |
| C[C@@H]1CN(c2ncnc3cc(-c4ccc(F)cc4)sc23)CCN1C(=O)NCc1ccc(F)cc1 | 10 to 200 µM |

This collection of values is drawn from patent US10227357B2.
